# assayedTarget: T1, Recombinant human Factor IX (rhFIX) (Homo sapiens, UniProt P00740, T194A)
# T1 construct: purchased Genetics Institute
# T1 sequence (P00740 47-461 T194A): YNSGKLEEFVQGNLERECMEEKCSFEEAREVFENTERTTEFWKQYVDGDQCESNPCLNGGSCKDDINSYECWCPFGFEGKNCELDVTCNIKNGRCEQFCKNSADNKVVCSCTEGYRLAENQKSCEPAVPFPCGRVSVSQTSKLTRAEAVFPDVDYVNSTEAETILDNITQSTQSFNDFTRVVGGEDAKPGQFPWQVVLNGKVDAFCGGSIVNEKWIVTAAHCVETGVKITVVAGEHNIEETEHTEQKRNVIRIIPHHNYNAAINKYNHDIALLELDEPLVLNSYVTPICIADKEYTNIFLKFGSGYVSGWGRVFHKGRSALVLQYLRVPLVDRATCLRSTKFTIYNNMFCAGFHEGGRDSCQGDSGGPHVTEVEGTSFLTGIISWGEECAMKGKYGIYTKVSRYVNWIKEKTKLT
# assayProtocol: BIAcore kinetics of Factor IX binding to mAb on protein A surface
# setupConditions: rhFIX 49 nM, 5 mM Ca2+, biosensor
propertyLabel: kdiss

# molecule, propertyLabel, result
data = [
    ("Chf9: mouse-human chimeric antibody directed against human Factor IX, chains F9CHLC and F9CHHC with BC2 variable regions (antibody) heavy: QIQLVQSGPELKKPGETVKISCKASGYTFTNYGMNWVKQAPGKGLKWMGWINTRNGKSTYVDDFKGRFAFSLESSASTANLQIDNLKDEDTATYFCTREGNMDGYFPFTYWGQGTLVTVSA light: QIVLSQSPAILSASPGEKVTMTCRASSSVNYMHWYQQKPGSSPKPWIYATSNLASGVPARFSGSGSGTSYSLTISRVEAEDAATYYCQQWSINPRTFGGGTKLEIK", "kdiss", "0.0003 s⁻¹"),
    ("BC2: murine monoclonal antibody directed against human Factor IX and/or Factor IXa, isotype IgG2a (antibody, V domains shown) VH: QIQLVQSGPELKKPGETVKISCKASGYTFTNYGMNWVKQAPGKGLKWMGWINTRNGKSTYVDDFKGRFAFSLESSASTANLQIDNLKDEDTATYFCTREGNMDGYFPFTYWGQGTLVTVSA VL: QIVLSQSPAILSASPGEKVTMTCRASSSVNYMHWYQQKPGSSPKPWIYATSNLASGVPARFSGSGSGTSYSLTISRVEAEDAATYYCQQWSINPRTFGGGTKLEIKR", "kdiss", "0.00091 s⁻¹"),
    ("SB 249415: humanized anti-Factor IX mAb, heavy chain F9HZHC 1-1 (SEQ ID NO: 52), light chain F9HZLC 1-1 (SEQ ID NO: 57) (antibody, V domains shown) VH: QVQLVQSGSELKKPGASVKVSCKASGYTFTNYGMNWVRQAPGQGLKWMGWINTRNGKSTYVDDFKGRFVFSLDSSVSTAYLQISSLKADDTAVYYCTREGNMDGYFPFTYWGQGTLVTVSS VL: EIVLTQSPATLSLSPGERATLSCRASSSVNYMHWYQQRPGQAPKPWIYATSNLASGVPARFSGSGSGTDFTLTISSLEPEDFAVYYCQQWSINPRTFGGGTKVEIKR", "kdiss", "0.00018 s⁻¹"),
]
